Listing: normalized growth of selected compounds
experiment: chemical genetic growth profiling, strain panel (AID 1159580);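 note: tested at 20 µM; growth read once vehicle control cultures reached saturation at 30 °C; 1 = growth at the plate median or of vehicle wells; lower values mean less growth of the strain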; conditions: S. cerevisiae deletion strains, growth OD, locus YJL164C, strain tpk1, hits give low values
Out of some 5,500 compounds screened, about 2,000 (36%) were called active. Roughly 18% stayed inconclusive and do not appear here. This is one part of the list.
Format: numeric value only, no unit, no commentary.

Task item: Which normalized growth reading was recorded for the compound "Cc1ccc(N=CN(C)C=Nc2ccc(C)cc2C)c(C)c1" ?
Reply: 0.97

Task item: How about this compound: CCCCCCCCCCCCCCC(C(=O)O)C(O)(CC(=O)OC)C(=O)O (stereo not drawn)
Reply: 0.979

Task item: How about this compound: CC1(C)CC(O)C2(C)CCC3(C)C(=CCC4C5(C)CCC(O)C(C)(CO)C5CCC43C)C2C1 (stereo not drawn)
Reply: 1.03

Task item: How about this compound: CC1OC(=O)C(C(C)C)NC(=O)C(C(C)C)OC(=O)C(C(C)C)NC(=O)C(C)OC(=O)C(C(C)C)NC(=O)C(C(C)C)OC(=O)C(C(C)C)NC(=O)C(C)OC(=O)C(C(C)C)NC(=O)C(C(C)C)OC(=O)C(C(C)C)NC1=O (stereo not drawn)
Reply: 0.267

Task item: How about this compound: CC1(C)CC[C@]2(C(=O)O)CC[C@]3(C)C(=CCC4[C@@]5(C)CC[C@H](O)[C@@](C)(CO)C5CC[C@]43C)C2C1 (stereo partly drawn)
Reply: 1.05

Further cases:
Task item: Which normalized growth reading was recorded for the compound CC(=O)O[C@@H]1CC[C@@]2(C)C(CC[C@]3(C)C2CC=C2C4CC(C)(C)CC[C@]4(C(=O)O)CC[C@]23C)C1(C)C (stereo partly drawn) ?
Reply: 0.927

Task item: How about this compound: "FC(F)(F)c1ccccc1-n1ccnc1"
Reply: 0.978

Task item: How about this compound: CC(=O)NC(C(=O)O)C(C)(C)SN=O (stereo not drawn)
Reply: 1

---

experiment: chemical genetic growth profiling, strain panel (AID 1159580); conditions: S. cerevisiae deletion strains, growth OD, locus YNL209W, strain ssb2
Screen size: about 5,500 compounds; about 2,000 (36%) were called active. Roughly 18% stayed inconclusive and do not appear here. Rule as the data show it: active = normalized growth mostly below about 0.91 (no sharp cut-off); inconclusive = no clear call, values can overlap the other calls; inactive = mostly above about 0.92. This is one part of the list.
Lab note: assign the record to one of 1 (yes) (active), 0 (no) (inactive)

Task item: Could you kindly confirm the outcome this assay logged for "Cc1ccc(N=CN(C)C=Nc2ccc(C)cc2C)c(C)c1" ?
Reply: 0 (no)

Task item: How about this compound: C/C=C(/C)C(=O)O[C@@H]1[C@H](OC(C)=O)[C@@]2(CO)C(CC1(C)C)C1=CCC3[C@@]4(C)CC[C@H](O[C@@H]5O[C@H](C(=O)O)[C@@H](O[C@@H]6O[C@H](CO)[C@@H](O)[C@H](O)[C@H]6O)[C@H](O)[C@H]5O[C@@H]5O[C@H](CO)[C@@H](O)[C@H](O)[C@H]5O)[C@](C)(CO)C4CC[C@@]3(C)[C@]1(C)C[C@H]2O (stereo not given in full)
Reply: 0 (no)

Task item: How about this compound: C[C@@H]1CC[C@H]2[C@@H](C)C(O)O[C@@H]3O[C@@]4(C)CC[C@@H]1[C@]32OO4 (stereo not given in full)
Reply: 1 (yes)

Task item: How about this compound: CC(=O)/C=C\[C@@H]1[C@@]2(C)CCCC(C)(C)C2CC[C@@]1(C)O (stereo not given in full)
Reply: 0 (no)

Task item: How about this compound: "N=C(N)SCCN"
Reply: 0 (no)

Further cases:
Task item: Could you kindly confirm the outcome this assay logged for "C/C=C1\[C@H]2C=C(C)C[C@]1(N)c1ccc(=O)[nH]c1C2" ?
Reply: 0 (no)

Task item: How about this compound: "O=c1ccc2ccc(O)cc2o1"
Reply: 0 (no)

Task item: How about this compound: "O=C1C(O)=C(O)C(=O)C(O)=C1O"
Reply: 0 (no)

Task item: How about this compound: "NCCC(=O)N[C@@H](Cc1cnc[nH]1)C(=O)O"
Reply: 0 (no)

Task item: How about this compound: OC(CCN1CCCCC1)(c1ccccc1)C1CC2C=CC1C2 (stereo not given)
Reply: 0 (no)

Task item: How about this compound: "N=C(N)c1ccc(OCCCCCOc2ccc(C(=N)N)cc2)cc1"
Reply: 0 (no)

Task item: How about this compound: "Clc1ccccc1C(c1ccccc1)(c1ccccc1)n1ccnc1"
Reply: 1 (yes)

Task item: How about this compound: Nc1ccccc1C(=O)CC(N)C(=O)O (stereo not given)
Reply: 0 (no)

Task item: How about this compound: CC(C)CC(N(C)C)C1(c2ccc(Cl)cc2)CCC1 (stereo not given)
Reply: 0 (no)

Task item: How about this compound: Cc1ccc(S(=O)(=O)NC(=O)NN2CC3CCCC3C2)cc1 (stereo not given)
Reply: 0 (no)

Task item: How about this compound: "Cc1cc(-n2c(=O)[nH]c(=O)n(C)c2=O)ccc1Oc1ccc(SC(F)(F)F)cc1"
Reply: 1 (yes)

Task item: How about this compound: CC(CC(=O)C1OC1(C)C)C1C(=O)CC2(C)C3=CCC4C(C)(C)C(OC5OCC(O)C(O)C5O)CCC45CC35C(O)CC12C (stereo not given)
Reply: 0 (no)

Task item: How about this compound: "CCOP(=S)(OCC)Oc1nc(Cl)c(Cl)cc1Cl"
Reply: 0 (no)

Task item: How about this compound: "COc1ccc2c(c1)c(CC(=O)OCC(=O)O)c(C)n2C(=O)c1ccc(Cl)cc1"
Reply: 0 (no)

Task item: How about this compound: "Nc1ccc(S(=O)(=O)Nc2cnc3ccccc3n2)cc1"
Reply: 0 (no)

---

Listing: normalized growth of selected compounds
test: chemical genetic growth profiling, strain panel (AID 1159580);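 note: tested at 20 µM; growth read once vehicle control cultures reached saturation at 30 °C; 1 = growth at the plate median or of vehicle wells; lower values mean less growth of the strain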; details: S. cerevisiae deletion strains, growth OD, locus YLR371W, strain rom2, hits give low values
Hit rate of the full screen: of about 5,500 compounds, about 2,000 (36%) were called active. Inconclusive results (about 18%) are left out. Some of the results follow.
Format: numeric value only, no unit, no commentary.

Previously resolved entries follow.
Task item: Which normalized growth reading was recorded for the compound "CCCCCCCCCCCC[C@H](C(=O)O)[C@@H](C)C(=O)O" ?
Reply: 1.01

Task item: How about this compound: "COC1=C[C@@H]2[C@@H]3Cc4ccc(OC)c(O)c4[C@]2(CCN3C)CC1=O"
Reply: 0.952

Task item: How about this compound: "Nc1c2ccccc2nc2ccccc12"
Reply: 0.948

Task item: How about this compound: "Nc1ccc(S(=O)(=O)Nc2ccnn2-c2ccccc2)cc1"
Reply: 0.99

Further cases:
Task item: Which normalized growth reading was recorded for the compound "NC(N)=N/N=C/c1c(Cl)cccc1Cl" ?
Reply: 1.02

---

Listing: normalized growth of selected compounds
experiment: chemical genetic growth profiling, strain panel (AID 1159580);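 note: tested at 20 µM; growth read once vehicle control cultures reached saturation at 30 °C; 1 = growth at the plate median or of vehicle wells; lower values mean less growth of the strain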; settings: S. cerevisiae deletion strains, growth OD, locus YCL011C, strain gbp2, hits give low values
In all, about 5,500 compounds went through this assay and about 2,000 (36%) were called active. Not shown: some 18% with an inconclusive outcome. The list shows a part of the results.
Format: numeric value only, no unit, no commentary.

Previously resolved entries follow.
Task item: Which normalized growth reading was recorded for the compound "CCOc1ccc2nc3cc(N)ccc3c(N)c2c1" ?
Reply: 0.447

Task item: How about this compound: Nc1c2c(nc3ccccc13)CCCC2O (configuration not stated)
Reply: 1.01

Further cases:
Task item: Which normalized growth reading was recorded for the compound "COc1cc(C(=O)O[C@H]2CC[C@@]3(C)[C@@H]4CC[C@H]5[C@]6(O)C[C@H](O)[C@@]7(O)[C@@H](CN8C[C@@H](C)CC[C@H]8[C@@]7(C)O)[C@]6(O)C[C@@]53O[C@]24O)cc(OC)c1OC" ?
Reply: 0.997

Task item: How about this compound: C/C=C(/C)C(=O)OC1CCC2(C)C3CCC4C5(O)CC(O)C6(O)C(CN7CC(C)CCC7C6(C)O)C5(O)CC42OC13O (configuration not stated)
Reply: 0.993

---

Listing: normalized growth of selected compounds
assay: chemical genetic growth profiling, strain panel (AID 1159580);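 note: tested at 20 µM; growth read once vehicle control cultures reached saturation at 30 °C; 1 = growth at the plate median or of vehicle wells; lower values mean less growth of the strain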; conditions: S. cerevisiae deletion strains, growth OD, locus YHR030C, strain SLT2, hits give low values
Out of some 5,500 compounds screened, about 2,000 (36%) were called active. Roughly 18% stayed inconclusive and do not appear here. This is one part of the list.
Format: numeric value only, no unit, no commentary.

Previously resolved entries follow.
Task item: Which normalized growth reading was recorded for the compound COc1c(CC(=O)c2cc3c(cc2O)OC(C)(C)C(O)C3)ccc2c1C=CC(C)(C)O2 (stereo unspecified) ?
Reply: 0.955

Task item: How about this compound: "Clc1cc(Cl)cc(-c2nc(SCc3ccc(Cl)cc3Cl)n[nH]2)c1"
Reply: 0.356

Task item: How about this compound: "Cc1nc(-c2cccnc2)nc(NCc2ccccc2)c1Cl"
Reply: 0.936

For the next question, use this compound.
Task item: Which normalized growth reading was recorded for the compound "CCOc1ccc2nc3cc(N)ccc3c(N)c2c1" ?
Reply: 0.967
